Exercise: for every item that follows, state its recorded logP.
METHOD SUMMARY: logP determination by HPLC on a reversed-phase column (C18), EEC Directive 79/831 Annex V.A8
Assay type: physicochemical
STATED CONDITIONS: HPLC, reversed-phase C18, acetonitrile/water with formic acid, 55° C.
API note: the answer field is a bare number with no unit suffix.

Consider Cc1cc(C(F)(C(F)(F)F)C(F)(F)F)cc(C)c1-n1ccc(-c2ccc(Cl)c(C(=O)NC3CC3)c2)c1 . Its measured logP is 5.0

GET /value?item= Cc1cc(C(F)(C(F)(F)F)C(F)(F)F)cc(C(F)(F)F)c1-c1cc(-c2cnc(Cl)c(C(=O)NC3(C#N)CC3)c2)on1 &field=logP returns 4.4

// field: logP; key: O=C(NC1CC1)c1cc(-c2ccn(-c3c(Cl)cc(C(F)(C(F)(F)F)C(F)(F)F)cc3Cl)c2)cnc1Cl ; value = 4.5

Quick note, logP for Cc1cc(C(F)(C(F)(F)F)C(F)(F)F)cc(C(F)(F)F)c1-c1cc(-c2ccc(Cl)c(C(=O)NC3CC3)c2)on1 landed at 4.9

###

METHOD SUMMARY: logP determination by HPLC on a reversed-phase column (C18), EEC Directive 79/831 Annex V.A8
Assay type: physicochemical
STATED CONDITIONS: HPLC-MS method a), Table I-T3
REPORTED ENDPOINT: logP^a)

Measured logP^a) of CCc1cc(C(F)(C(F)(F)F)C(F)(F)F)ccc1-n1cc(-c2cccc(C(=O)NC3(C#N)CC3)c2F)cn1 : 4.5

For this molecule ( N#CC1(NC(=O)c2cccc(-c3cnn(-c4c(Cl)cc(C(F)(C(F)(F)F)C(F)(F)F)cc4Cl)c3)c2F)CC1 ), measured logP^a) is 4.1

Please fill in: logP^a) reported for Cc1cc(C(F)(C(F)(F)F)C(F)(F)F)cc(C)c1-n1cc(-c2cc(C(=O)NC3CC3)ccc2F)cn1 = 4.5

Record Cc1cc(C(F)(C(F)(F)F)C(F)(F)F)cc(C)c1-n1cc(-c2ccc(Cl)c(C(=O)NC3(C#N)CC3)c2)cn1 . Reported logP^a): 4.2

The reported logP^a) of the molecule Cc1cc(C(F)(C(F)(F)F)C(F)(F)F)cc(C)c1-n1cc(-c2cc(C(=O)NC3(C#N)CC3)cc(C(F)(F)F)c2)cn1 was 4.7

Lookup result for Cc1cc(C(F)(C(F)(F)F)C(F)(F)F)cc(C)c1-n1cc(-c2cccc(C(=O)NC3CC3)c2F)cn1 ; measured logP^a): 4.3

Entry CCc1cc(C(F)(C(F)(F)F)C(F)(F)F)ccc1-n1cc(-c2ccc(Cl)c(C(=O)NC3CC3)c2)cn1 ; logP^a) = 4.6

The recorded logP^a) for entry CCc1cc(C(F)(C(F)(F)F)C(F)(F)F)cc(C)c1-n1cc(-c2ccc(Cl)c(C(=O)NC3CC3)c2)cn1 equals 4.7

Looking up Cc1cc(C(F)(C(F)(F)F)C(F)(F)F)cc(C)c1-n1cc(-c2cccc(C(=O)NC3(C#N)CC3)c2)cn1 , I found its logP^a) recorded as 3.2

What the record says about O=C(NC1CC1)c1cc(-c2cnn(-c3ccc(C(F)(C(F)(F)F)C(F)(F)F)cc3OC(F)(F)F)c2)ccc1Cl : logP^a) is 4.7

Short answer for N#CC1(NC(=O)c2cc(-c3cnn(-c4c(Cl)cc(OC(F)(F)F)cc4Cl)c3)ccc2Cl)CC1 : logP^a) was 3.6

Memo: CCc1cc(C(F)(C(F)(F)F)C(F)(F)F)cc(Cl)c1-n1cc(-c2ccc(Cl)c(C(=O)NC3(C#N)CC3)c2)cn1 , reported logP^a): 4.5

Record CCc1cc(C(F)(C(F)(F)F)C(F)(F)F)cc(C)c1-n1cc(-c2ccc(Cl)c(C(=O)NC3(C#N)CC3)c2)cn1 . Reported logP^a): 4.6

The molecule listed as O=C(NCCC(F)(F)F)c1cc(-c2cnn(-c3ccc(C(F)(C(F)(F)F)C(F)(F)F)cc3Cl)c2)ccc1Cl has a reported logP^a) of 4.7
